Data origin, for the record: patent US5582813A

# Test Summary: Toxicity, intraperitoneal injection in mice
# Assay type: in vivo
# Experimental Conditions: mouse, in vivo, ip; mice, intraperitoneal, g/kg animal weight; read-out: tolerance
Measured Metric: MTD

q: Supply MTD value. Item: CCCCCCC(I)=CC(F)(F)C(F)(F)C(F)(F)C(F)(F)C(F)(F)C(F)(F)C(F)(F)C(F)(F)F [Compound IIIA, C8 F17 --CH=CI--C6 H13]
a: > 45000 mg/kg
